B1: Hairpin Ribozyme (parent)
chain: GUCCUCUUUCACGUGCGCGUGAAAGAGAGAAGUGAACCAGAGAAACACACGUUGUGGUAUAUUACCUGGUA

variants of: B1; experiment: self-cleavage, relative activity (ratio to wild type); higher = more cleavage; co-transcriptional
Readout kind: self-cleavage

• A11U C12G = 0.74
• C16U G17U = 0.92
• A26G G34U = 1.37
• U33A G40C = 0.0171
• C48G G69U = 0.0941
• A11U U62A = 0.148
• C18G A61C = 0.201
• A44G A49C = 0.0332
• C6U A35U = 0.765
• A23C U52A = 0.875
• U2A U5C = 0.137
• C4A C16G = 0.236
• G21A A28G = 0.979
• A44C C50G = 0
• G1C U63C = 0.285
• G13A A47U = 0.172
• A35C C50U = 0.438
• C18A C66A = 0.258
• U60A A61C = 0.133
• G17A U33C = 0.113
• G34C G57C = 0.195
• G15A A59C = 0.182
• C12U G34U = 1.18
• G27U G34A = 0.282
• U8G U70A = 0.715
• G13U A22C = 0.533
• U7A G29U = 0.178
• G17C U63A = 0.193
